src = PubChem BioAssay

- ASSAY: inhibitors of Sendai virus-induced IRF3 signaling, primary screen, TLR/RLR signaling modifier project, cell-based, Sendai virus stimulus, luciferase, 10K MLSCN set (AID 602276);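 note: firefly luciferase from ISG56 promoter only with Renilla not read in this screen; 0% = Sendai virus plus DMSO and 100% = medium plus DMSO without virus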
- EXPERIMENTAL PARAMETERS: HEK293 RL24 IRF3 luciferase reporter, at 10 µM, stronger effect = higher value
MEASURED PROPERTY: inhibition (%)
Answer in %, number only, no unit symbol.

Record excerpt, results attached:
>>> print(df.to_string())
                                   compound  experimental_value
0        CCO/C([O-])=N/c1c[n+](N2CCOCC2)no1               -10.8
1  CC(C)C1Cc2c(C#N)c(N)sc(=S)c2CO1 (stereo unspecified)               -3.04
2        COc1cc(/C=N/n2c(C)nnc2C)cc(OC)c1OC                  14
3  N#CC1=C(N)OC2=C(C(=O)CCC2)C1CCc1ccccc1 (stereo unspecified)                 7.7
4  CCOc1ccc(S(=O)(=O)N(C)C)cc1-c1nc2c(C(C)(C)C)nn(C)c2c(=O)[nH]1                -1.7

Below: the item to evaluate.
Find the recorded inhibition belonging to "C=CCn1c(N)c(C(=O)OC(C)(C)C)c2nc3ccccc3nc21" and report it.
12.2

---

z-score by entry:
- ASSAY: DUSP6 inhibitors restoring Erk phosphorylation by chemical complementation, primary imaging in DUSP6-transfected HeLa (AID 609)
- EXPERIMENTAL PARAMETERS: HeLa MKP-3 transfected, phospho-Erk imaging KS statistic; measured here: nuclear c-Myc green intensity z-score; at 10 µM; cells stimulated with TPA for 15 min
Would you mind answering with just the numeric figure?

# example entries with known answers
>>> df
                                   compound  experimental_value
0          CCOc1nc(SCCOc2ccccc2)nc(N(C)C)n1              -0.437
1         COc1ccccc1-c1nn2c(-c3ccco3)nnc2s1              -0.311
2  CCCCC(=O)O[C@H]1CC[C@H]2[C@@H]3CCc4cc(O)ccc4[C@H]3CC[C@]12C               -1.69

Please look at the following compound next.
Recorded z-score of CCCc1[nH]nc2c1C(c1cccc(OC)c1)C(C#N)=C(N)O2 (centres undefined) , please.
-0.724

---

- ASSAY: inhibitors of poly I:C-induced TLR3 signaling, primary screen, cell-based, poly I:C stimulus, luciferase, 10K MLSCN set (AID 602277)
- EXPERIMENTAL PARAMETERS: HEK293-TLR3 RL24 IRF3 luciferase reporter, at 10 µM, stronger effect = higher value
MEASURED PROPERTY: inhibition (%)
Give the number; % is assumed, so skip it.

                                   compound  measured_property  experimental_value
0  Cc1nc2ccccn2c(=O)c1CCN1CCC(C(=O)c2ccc(F)cc2)CC1         inhibition                35.8

What does the data say about its inhibition? Entry: COc1ccccc1N1CCN(CC(O)COc2cccc3ccccc23)CC1 (centres undefined)
36.9

Request the reported inhibition associated with CCN(CC)CCN1C(=O)C(=O)/C(=C(/O)c2c(C)[nH]c(C(=O)OC)c2C)C1c1ccco1 (centres undefined)
6.98

Look at this compound and give its reported inhibition. CCOC(=O)C1=C(C)NC(C)=C(C(=O)OC)C1c1cccc(Cl)c1Cl (centres undefined)
6.81

Quick check: inhibition of CC(C)(C)NCC(O)COc1cccc2c1C[C@H](O)[C@H](O)C2 (some centres undefined) ?
32.8

For "Cn1cnc2c1c(=O)[nH]c(=O)n2C" , what is its reported inhibition?
16.1

Which inhibition reading was recorded for the compound "CCN(CC)CCNC(=O)c1ccc(NC(C)=O)cc1" ?
42.8

inhibition lookup needed for "CCCc1c(OCCCCc2nn[nH]n2)ccc(C(C)=O)c1O" , thanks.
34.3

Tell me the measured inhibition of CCOC(=O)CSC1=C(C#N)C(=O)NC(c2ccc(OC)c(OC)c2)S1 (centres undefined) , please.
11.8

Request the reported inhibition associated with "O=C(c1cccc2ccccc12)N1CCC(N2CCN(c3ccccc3)CC2)CC1"
21.4

Looking for the measured inhibition of "CCCCC(=O)Nc1c(O)c2ccccc2[nH]c1=O" , can you help?
1.03

Endpoint output: inhibition of "CN1CCC(=C2c3ccccc3CC(=O)c3sccc32)CC1" . Value?
51.2

# input compound: CN1CCN2c3ccccc3Cc3ccccc3C2C1 (centres undefined) ; wanted: its inhibition
45.7

I am curious: what inhibition value has been reported for CC(C[N+](C)(C)C)OC(N)=O (centres undefined) ?
38.3

Would you mind telling me what inhibition value was observed for "O=C(CSc1nnc(-c2ccco2)c(-c2ccco2)n1)Nc1ccccc1" ?
6.55

Please look up its inhibition: "CCCC(=O)N(Cc1cc2ccccc2[nH]c1=O)c1ccccc1OC"
14.8

So what's the measured inhibition for this one? "O=C1CSC(=Nc2ccc(O)cc2)N1c1ccc(O)cc1"
25

Consider the compound O=C(NC1CCS(=O)(=O)C1)c1c(NC(=O)C2COc3ccccc3O2)sc2c1CCCC2 (centres undefined) and give its measured inhibition.
14.6

---

- ASSAY: inhibitors of E-selectin induction by TNFa, primary screen, imaging, HUVEC, immunofluorescence, MLSMR starter and 10KST1 sets (AID 487);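 note: 100% = median nuclei count of all wells on the same plate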
- EXPERIMENTAL PARAMETERS: HUVEC TNFalpha-induced E-selectin immunofluorescence imaging, at 2 µM; measured here: cell number, toxicity
Catalogue of compounds with associated nuclei count
Reply with just the number (in %).

Some solved entries appear below for comparison.
>>> print(df.to_string())
                                   compound  unit_symbol  experimental_value
0              Cc1c(Cl)cccc1Nc1ccccc1C(=O)O            %                 129
1  COc1ccc(OCC(O)Cn2c(Nc3cccc(C)c3)nc3c2c(=O)n(C)c(=O)n3C)cc1 (configuration not stated)            %                 139
2     O=C(CN1C(=O)c2ccccc2S1(=O)=O)c1ccccc1            %                 193

Quick one: nuclei count of Cc1c(/C(O)=C2/C(=O)C(=O)N(CCN3CCOCC3)C2c2cccnc2)cnn1-c1ccccc1 (configuration not stated) ?
107

Fill in the blank: the reported nuclei count of CN(C)CCCN1C(=O)C(O)=C(C(=O)c2cc3ccccc3o2)C1c1ccccc1 (configuration not stated) is ____.
132

Recorded nuclei count for "COc1ccc2cnn(-c3ccccc3C)c(=O)c2c1OC" , please?
157

Quick one: nuclei count of CCN(CCCCOC(=O)c1ccc(OC)c(OC)c1)C(C)Cc1ccc(OC)cc1 (configuration not stated) ?
138

Please report the recorded nuclei count for "Cc1cc(C)nc(NC2=NCC(=O)N2c2ccccc2)n1" .
136

Which nuclei count value is on record for "CCOC(=O)c1oc2cc(O)cc(C)c2c(=O)c1-c1cscn1" ?
133

What does the data say about its nuclei count? Entry: Cc1ccc(C2/C(=C(/O)c3ccc(OC(C)C)cc3)C(=O)C(=O)N2CCN2CCOCC2)cc1 (configuration not stated)
166

// returns reported nuclei count for input "OCCOCCNc1ncnc2c1cnn2-c1ccccc1"
162

Returns the measured nuclei count for the input compound. Input: CCOP(=O)(c1ccccc1)C1(C#N)CCCC1 (configuration not stated)
150

State the recorded nuclei count for this entry: CCN(CC)CCN1C(=O)C(=O)/C(=C(/O)c2ccc(C)cc2)C1c1cccnc1 (configuration not stated)
113

---

- ASSAY: DUSP6 inhibitors restoring Erk phosphorylation by chemical complementation, primary imaging in DUSP6-transfected HeLa (AID 609)
- EXPERIMENTAL PARAMETERS: HeLa MKP-3 transfected, phospho-Erk imaging KS statistic; measured here: nuclear c-Myc green intensity z-score; at 10 µM; cells stimulated with TPA for 15 min
MEASURED PROPERTY: z-score

COMPOUND	z-score
CC(C)N1CCc2c(sc(N)c2C#N)C1	0.299
COC(=O)c1sc(NC(=O)C(C)C)c(C(=O)OC)c1C	-0.742
CN1CCN(c2ncnc3c2[nH]c2ccc(F)cc23)CC1	0.264
CC[C@H]1OC(=O)C[C@@H](O)[C@H](C)[C@@H](O[C@@H]2O[C@H](C)C[C@H](N(C)C)[C@H]2O)[C@@H](CC=O)C[C@@H](C)C(=O)C=C[C@]2(C)O[C@H]2[C@@H]1C	-0.225
CCCN(CCC)C(=O)CC(c1ccc(F)cc1)c1ccco1 (stereo not given)	-0.963

I'd like to know its z-score. The compound in question is "Clc1ccc(Cl)c(-c2ccc(/C=N/c3ncn[nH]3)o2)c1"
-0.195

// lookup z-score for "CCOc1cccc(-c2nnc3sc(COc4ccccc4)nn23)c1"
-0.94

Dear colleague, I am looking for the recorded z-score of the following compound: "CCCCOc1ccccc1/C=c1/sc2nc(-c3oc4ccccc4c3C)nn2c1=O"
2.04

Give its z-score value. Item: O=C(O)CC(C(=O)OCC1CCCO1)N1CCOCC1 (stereo not given)
-0.928

z-score for "O=C1c2ccccc2C(=O)C1c1ccc2ccccc2n1" ?
-0.223
